- System: HOP-18 NSCLC
- ASSAY_INFO: NCI tumour cell line growth inhibition, 48 h
Parameter: TGI. Scope: all listed entries.

Reference set, count: 2
C/C1=C/C2OC(=O)C3(C)C2C(CC2(C)OC1=CC2=O)OC3(O)C(C)C (stereo not drawn)
> 100 µM
Cc1cc(=O)[nH]c(NN2C(Cl)C(=O)C2c2ccc(O)cc2)n1 (stereo not drawn)
27.8 µM

Read the next record carefully.
Quick one: TGI for CCOC(=O)C1N(S(=O)(=O)c2ccc(C)cc2)CCC12C(c1ccc(OC)c(OC)c1)=Nc1ccccc12 (stereo not drawn) ?
> 100 µM

====

- Tested on: MDA-MB-231 breast
- ASSAY_INFO: NCI tumour cell line growth inhibition, 48 h
Parameter: TGI. Scope: all listed entries.
Respond with the bare value in µM.

CCOC(=O)/C=C\[C@H]1OC(C)(C)O[C@H]1[C@H](O)[C@H]1COC(C)(C)O1
33.9
N#C/C(=C\c1ccc(Cl)cc1)c1nc(-c2cc3ccccc3oc2=O)cs1
47.8

Read the next record carefully.
For MDA-MB-231 breast, provide TGI of COc1cc2c3c(n(CCCN(C)C)c(=O)c2cc1OC)-c1cc2c(cc1C3=O)OCO2 please.
2.76
